Examples of binders with documented fold change of affinity follow.
# target: T1, Human CD3eg linker (human)
# T1 construct: Single-chain construct; also called recombinant human CD3
# T1 chain: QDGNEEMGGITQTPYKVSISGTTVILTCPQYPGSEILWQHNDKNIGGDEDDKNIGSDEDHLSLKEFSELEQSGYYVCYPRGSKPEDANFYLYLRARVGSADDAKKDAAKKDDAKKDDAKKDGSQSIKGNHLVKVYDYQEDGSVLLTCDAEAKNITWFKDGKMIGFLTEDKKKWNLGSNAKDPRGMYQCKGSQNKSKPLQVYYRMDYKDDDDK
# assay_info: SPR; fold vs parent H183/L072
observation_type: fold change of affinity (fold)

| binder | units_symbol | reported |
| --- | --- | --- |
| H183/L072 VL S26F (antibody, name in Kabat numbering, V domains shown) VH: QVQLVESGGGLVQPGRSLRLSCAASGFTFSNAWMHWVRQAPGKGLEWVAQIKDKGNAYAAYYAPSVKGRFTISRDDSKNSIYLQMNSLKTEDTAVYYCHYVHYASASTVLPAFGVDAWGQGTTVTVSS VL: DIVMTQSPLSLPVTPGEPASISCQAFQELVHMNRNTYLHWYQQKPGQAPRLLIYKVSNRFPGVPDRFSGSGSGTDFTLKISRVEAEDVGVYYCAQGTSVPFTFGQGTKLEIK | fold | 0.6 |
| H183/L072 VL L27bP (antibody, name in Kabat numbering, V domains shown) VH: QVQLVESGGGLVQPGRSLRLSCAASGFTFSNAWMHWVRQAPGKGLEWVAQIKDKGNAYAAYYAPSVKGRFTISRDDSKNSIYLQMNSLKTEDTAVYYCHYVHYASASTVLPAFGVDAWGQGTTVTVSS VL: DIVMTQSPLSLPVTPGEPASISCQASQEPVHMNRNTYLHWYQQKPGQAPRLLIYKVSNRFPGVPDRFSGSGSGTDFTLKISRVEAEDVGVYYCAQGTSVPFTFGQGTKLEIK | fold | 1.8 |
| H183/L072 VL T97N (antibody, name in Kabat numbering, V domains shown) VH: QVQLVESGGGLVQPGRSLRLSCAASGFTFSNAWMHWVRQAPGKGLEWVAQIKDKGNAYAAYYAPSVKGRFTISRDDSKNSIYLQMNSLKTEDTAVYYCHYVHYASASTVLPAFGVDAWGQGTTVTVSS VL: DIVMTQSPLSLPVTPGEPASISCQASQELVHMNRNTYLHWYQQKPGQAPRLLIYKVSNRFPGVPDRFSGSGSGTDFTLKISRVEAEDVGVYYCAQGTSVPFNFGQGTKLEIK | fold | 0.5 |
